Listed below are compounds with pKi for Adenosine receptor A1 (Bos taurus, UniProt P28190), each taken from published literature.
// pKi is dimensionless: -log10 of concentration (M)

| compound | reported result |
| --- | --- |
| c1ccc(Cn2nnc3c(NC4CC4)nc(-c4ccccc4)nc32)cc1 | 7.95 |
| O=C(NCc1ccccc1)c1nc2c(=O)[nH]c3ccccc3n2n1 | 6.24 |
| CC(=O)Nc1nc2c(N)cccc2n2c(=O)n(-c3ccccc3)nc12 | 9.00 |
| Cc1cccc(Nc2ncnc3c2nnn3CCc2ccccc2)c1 | 5.36 |
| Cn1c(=O)ccc2c(O)cc(-c3ccccc3)nc21 | 5.30 |

State the recorded pKi for this entry: "Cc1cccc(Nc2ncnc3c2nnn3Cc2ccccc2Cl)c1"
5.23

What do you get for CC(O)CNc1nc(-c2ccccc2)nc2c1nnn2Cc1ccccc1 (stereo unspecified) ?
8.12

What do you get for "CCCn1c(=O)c2nc(C3CCCC3)[nH]c2n(CCCF)c1=O" ?
9.74

What do you get for "OC[C@H]1O[C@@H](n2cnc3c(NC4CCCCC4)ncnc32)[C@H](O)[C@@H]1O" ?
8.60

What do you get for "Cc1ccccc1-n1cc2c(n1)c(NC1CCCC1)nc1ccccc12" ?
6.83
